Source listed as patent US20260053904A1.

# system-under-test: T1, human EpCAM expressed on cells (CHO, Colo205, 293) (human, UniProt P16422 24-314)
# T1 construct: whole, on cells; also called CHO cells expressing human EpCAM; Colo205 cells expressing human EpCAM
# T1 sequence (looked up): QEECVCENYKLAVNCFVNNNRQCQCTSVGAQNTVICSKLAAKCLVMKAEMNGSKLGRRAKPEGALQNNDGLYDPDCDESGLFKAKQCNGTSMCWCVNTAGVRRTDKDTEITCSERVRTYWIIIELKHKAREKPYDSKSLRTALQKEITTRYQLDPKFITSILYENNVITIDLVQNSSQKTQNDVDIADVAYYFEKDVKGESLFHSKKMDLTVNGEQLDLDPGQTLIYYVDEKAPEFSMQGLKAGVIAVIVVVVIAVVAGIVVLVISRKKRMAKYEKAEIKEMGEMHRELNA
# assay-procedure: FACS on 293 cells expressing human EpCAM, pH 6.0
metric: EC50
I'd appreciate it if you included the unit after the number.

Item: BAP-105.4-03-02 (antibody, V domains shown, Humanized) VH: EVQLVQSGAEVKKPGESLRISCKGSGYTFTSYWMHWIRQSPSRGLEWLGYIRPSTGYTEYNQKFKDRVTISADKSISTAYLQWSSLKASDTAMYYCGRGDNWVGFANWGQGTLVTVSS VL: EIVMTQSPATLSVSPGERATLSCSASSSISYMHWYQQKPGKAPKLLIYSTSNLASGIPPRFSGSGYGTDFTLTINNIESEDAAYYFCHQWSTYETFGQGTKVEIK | EC50: 0.118 mg/L
